test system: SK-OV-3 ovarian; assay: NCI tumour cell line growth inhibition, 48 h
Result type: TGI

A selection of reference data follows.
{"columns": ["Compound", "TGI"],
 "data": [
  ["CSC(=NC#N)S/C=C/C(=O)c1ccc(Cl)cc1", "> 100 µM"],
  ["O=C1CC2(CCC(O)(c3ccccc3)C(C(=O)c3ccccc3)C2)C(=O)c2ccccc2N1 (stereo not given)", "> 100 µM"],
  ["COc1cc2ccc1NC(=O)N1CCN(CC1)C(=O)Nc1ccc(cc1OC)-c1ccc(c(OC)c1)NC(=O)N1CCN(CC1)C(=O)Nc1ccc-2cc1OC", "> 100 µM"],
  ["O=C(N/N=C/c1c(Cl)cccc1Cl)c1cccnc1Nc1cccc(C(F)(F)F)c1", "30.2 µM"],
  ["OCc1ccc(N(Cc2ccc(F)cc2)CC2CC2)cc1Cl", "22.7 µM"]
]}

Prompt: Dear colleague, I am looking for the recorded TGI of the following compound: Cc1nc2c(o1)C(=O)c1ccccc1C2=Nc1ccccc1
Completion: 31.2 µM

Prompt: Check C=CCc1cccc2cc(C(N)=O)c(=N)oc12 too.
Completion: > 100 µM

Hello, the source for this data is PubChem BioAssay (NCI), in case you need it.
